System: CAKI-1 renal
assay-procedure: NCI tumour cell line growth inhibition, 48 h
Overview of reported TGI across a group of molecules:

Worked set:
>  <molecule>
O=C(O)c1cc2c(cc1CC(Cc1ccc3c(c1)CCC3)C(=O)O)CCC2 (configuration not stated)

>  <subject-of-test>
CAKI-1 renal

>  <TGI>
> 100 µM

$$$$
>  <molecule>
CC(O[Si](c1ccccc1)(c1ccccc1)C(C)(C)C)[C@H](NC(=O)OC(C)(C)C)C(=O)O[Si](c1ccccc1)(c1ccccc1)C(C)(C)C (some centres not stated)

>  <subject-of-test>
CAKI-1 renal

>  <TGI>
27 µM

$$$$
>  <molecule>
COc1ccc(C2Oc3c(cc(O)c(OC)c3C)[C@@H]2C)cc1OC (some centres not stated)

>  <subject-of-test>
CAKI-1 renal

>  <TGI>
> 100 µM

$$$$
>  <molecule>
C[C@]12CC[C@@H]3c4ccc(O)cc4CC[C@H]3[C@@H]1C/C(=C\c1ccncc1)C2=O

>  <subject-of-test>
CAKI-1 renal

>  <TGI>
> 100 µM

$$$$
>  <molecule>
OCc1ccc2[n+](c1)CCC1c3ccccc3NC21 (configuration not stated)

>  <subject-of-test>
CAKI-1 renal

>  <TGI>
> 300 µM

$$$$
>  <molecule>
COC(=O)CC(C(C(=O)OC)C(=O)OC)N1C(=O)OCC1c1ccccc1 (configuration not stated)

>  <subject-of-test>
CAKI-1 renal

>  <TGI>
> 100 µM

$$$$
>  <molecule>
CCc1c(Oc2ccc(C(C)=O)cc2)c2ccccc2[nH]c1=O

>  <subject-of-test>
CAKI-1 renal

>  <TGI>
53.3 µM

$$$$
>  <molecule>
CN(C(=O)C12C3C4C1C1C2C3C41C(=O)C(C)(C)C)C(C)(C)C (configuration not stated)

>  <subject-of-test>
CAKI-1 renal

>  <TGI>
> 100 µM

$$$$
>  <molecule>
CSc1nc(Cl)c2c(n1)Sc1nc3cc4c(cc3n1C2O)OCCO4 (configuration not stated)

>  <subject-of-test>
CAKI-1 renal

>  <TGI>
1.21 µM

$$$$
>  <molecule>
Cc1nn(CN2CCN(C)CC2)c(=S)n1/N=C/c1cccc2ccccc12

>  <subject-of-test>
CAKI-1 renal

>  <TGI>
73.5 µM

$$$$

For CC(C)(C)C1=C(Br)C(Br)(C(C)(C)C)OP1(=O)c1ccccc1 (configuration not stated) , what is its reported TGI?
> 100 µM

Which TGI value is on record for `CC(C)OP(=O)(OC(C)C)c1c(Nc2ccccc2)n[nH]c1N` ?
> 100 µM

Which TGI value is on record for `O=c1oc2ccc(F)cc2c(=O)n1-c1ccc(F)cc1F` ?
6.4 µM

Please look up its TGI: CCCCN(CCCC)C(=O)C(=O)C(C#N)c1ccc(C)cc1 (configuration not stated)
> 100 µM

# query: TGI of entry COc1ccc(C2CC(c3c(O)ccc4ccccc34)=NN2c2ccc([N+](=O)[O-])cc2[N+](=O)[O-])cc1OC (configuration not stated)
69.1 µM

---

Entries and their TGI
System: LOX IMVI melanoma
assay-procedure: NCI tumour cell line growth inhibition, 48 h
Where a SMILES comes first, the peptide text is derived from it. The star is where a group is joined. Boc = CC(C)(C)OC(=O)*
Form entry: value (µM) — number only.

Check out these entries, answers already filled in.
>  <compound>
C#CCCCCC#Cc1ccccc1C(=O)OC

>  <TGI / µM>
33.1

$$$$
>  <compound>
COc1cc(OC)cc(-c2ccc(-c3ccc(C(=N)N)o3)o2)c1

>  <TGI / µM>
3.29

$$$$
>  <compound>
Cc1nn(CN2CCN(C)CC2)c(=S)n1/N=C/c1cccc2ccccc12

>  <TGI / µM>
31.4

$$$$

Which TGI reading was recorded for the compound `CN(C)CCC(=O)N1C/C(=C/c2ccccc2)C(=O)/C(=C\c2ccccc2)C1` ?
1.27

I'd like to know its TGI. The compound in question is Cn1c(N2NC(=O)C(N=Nc3ccc(S(N)(=O)=O)cc3)C2=O)nc(-c2ccco2)c(C#N)c1=O (stereo not given)
18.7

Sample `CC1=C(O)C(=O)[C@@H]2O[C@@H]2C1=O` — what was its TGI?
26.8

Name the recorded TGI for COC(=O)CNC(=O)C(Cc1ccccc1)NC(=O)C(CCSC)NC(=O)C(Cc1ccc(O)cc1)NC(=O)OC(C)(C)C (stereo not given) (Boc-YMFG-OMe; configuration not given here) .
32.7
